Protocol Notes: Cytotoxicity against human SMMC-7221 cells assessed as reduction in cell viability after 48 hrs by MTS assay
Format: functional, cell-based
Test Settings: SMMC-7221, 48 h
Measured Quantity: IC50 (µM)
Enter your answer as a number in µM; do not include the unit.

Observe how each entry below is paired with its result.
1) COc1ccc(C(=O)C[n+]2c(C)n(CCCN3C[C@@H]4Cc5ccccc5[C@@H]4c4cccc(OC)c43)c3ccccc32)cc1 : 1.32
2) COc1cccc2c1N(C(=O)CCn1c(C)[n+](CC(=O)c3ccc4ccccc4c3)c3ccccc31)C[C@@H]1Cc3ccc(Br)cc3[C@H]21 : 1.58
3) COc1cccc2c1N(CCCn1c(C)[n+](Cc3ccc(C)cc3)c3ccccc31)C[C@@H]1Cc3ccccc3[C@H]21 : 1.8
4) COc1cccc2c1N(CCCn1c(C)[n+](Cc3ccc4ccccc4c3)c3ccccc31)C[C@@H]1Cc3ccccc3[C@H]21 : 2.06
5) COc1cccc2c1N(CCCn1c(C)[n+](Cc3ccc(C)cc3)c3ccccc31)C[C@@H]1Cc3ccc(Br)cc3[C@H]21 : 0.98

GET /value?item= COc1cccc2c1N(C(=O)CCn1c[n+](Cc3ccc4ccccc4c3)c3cc(C)c(C)cc31)C[C@@H]1Cc3ccccc3[C@H]21 &field=IC50 returns 1.03

molecule COc1cc2c(cc1OC)[C@@H]1c3cccc(OC)c3N(CCCn3c(C)[n+](Cc4ccc(C)cc4)c4ccccc43)C[C@@H]1C2 , IC50 observed: 6.49

// sample COc1cccc2c1N(CCCn1c(C)[n+](Cc3ccc4ccccc4c3)c3ccccc31)C[C@@H]1Cc3ccc(Br)cc3[C@H]21 , its IC50 was 1.08

Cited source for all entries: ChEMBL document CHEMBL4373640
